The entries below come with measured GI50 values attached.
System: SNB-19
protocol notes: NCI tumour cell line growth inhibition, 48 h
Activity calls are given as the source filed them. No stated cut-off is given here; in the data, active = GI50 up to about 1.1 µM and inactive = higher.
readout type: GI50

INSERT INTO assay_data (compound, readout_type, obs_value) VALUES
  ('NC(=O)c1nc(-c2ccc(Cl)c(Cl)c2)nc2ccccc12', 'GI50', '17.8 µM (inactive)'),
  ('CCCCC1=C(C(=O)N2CCOCC2)C2(OCCO2)C1=O', 'GI50', '14 µM (inactive)'),
  ('NC(CCCCNC(=O)CNC(=O)OCc1ccccc1)C(=O)NC(CCCCNC(=O)CNC(=O)OCc1ccccc1)C(=O)NC(CCCCNC(=O)CNC(=O)OCc1ccccc1)C(=O)NC(CCCCNC(=O)CNC(=O)OCc1ccccc1)C(=O)NC(CCCCNC(=O)CNC(=O)OCc1ccccc1)C(=O)NC(CCCCNC(=O)CNC(=O)OCc1ccccc1)C(=O)O (stereo not drawn)', 'GI50', '> 75 µM (inactive)'),
  ('CN(C(=O)c1ccco1)C(=S)N1CCN(c2ccccc2)CC1', 'GI50', '> 100 µM (inactive)'),
  ('O=c1[nH]c(=O)n(C2CC(O)C(CO)O2)cc1OS(=O)(=O)C(F)(F)F (stereo not drawn)', 'GI50', '> 100 µM (inactive)'),
  ('Cc1c2ccnc(C(N)=O)c2c(C)c2c1[nH]c1ccccc12', 'GI50', '8.13 µM (inactive)'),
  ('O=c1c2ccccc2nc(-c2ccccc2Cl)n1NC1OC(CO)C(O)C(O)C1O (stereo not drawn)', 'GI50', '> 100 µM (inactive)'),
  ('CCCC1(NC(=O)C(F)(F)F)CC(OC)OC2COC(c3ccccc3)OC21 (stereo not drawn)', 'GI50', '> 100 µM (inactive)');

====

Test system: KM12
protocol notes: NCI tumour cell line growth inhibition, 48 h
The source made the active and inactive calls. Cut-off read from the data, not from the text of the source: active = GI50 up to about 1.1 µM and inactive = higher.
Labels: 1 (active), -1 (inactive)

INSERT INTO assay_data (molecule, cat) VALUES
  ('Cc1c2ccnc(C(N)=O)c2c(C)c2c1[nH]c1ccccc12', -1),
  ('CN(C)CCNC(=O)Cn1cnc2cccc([N+](=O)[O-])c2c1=O', -1),
  ('CC1CNC(c2ccc(CN3CCC(CCCC4CCN(Cc5ccc(C6=NC(C)CN6)cc5)CC4)CC3)cc2)=N1 (stereo not given)', -1),
  ('Cc1ccc(S(=O)(=O)N2CCN(S(=O)(=O)c3ccc(C)cc3)Cc3ccccc3C2)cc1', -1),
  ('O=C(NC12CC3CC(CC(C3)C1)C2)n1cnc2c(Cl)ncnc21', -1),
  ('CC(C)(C)C1=C(Br)C(O)(C(C)(C)C)OP1(=O)c1ccccc1 (stereo not given)', -1),
  ('N#Cc1c(-c2ccccc2)cn(C(=O)c2ccccc2)c1N', -1),
  ('COc1c(OC(C)=O)c(OC(C)=O)cc2c1-c1ccc(OC)c(=O)cc1C(NC(C)=O)CC2 (stereo not given)', 1),
  ('Cc1ccc(-c2cc(-c3ccc(Cl)cc3)nc(/N=C3\C(=O)N(CN(C)C)c4ccccc43)n2)cc1', -1),
  ('Cc1ccc(C(=O)C#Cc2cnc(O)nc2O)cc1', -1),
  ('NC1CCCCC1.O=P(O)(O)C(CSc1ccccc1)P(=O)(O)O', -1),
  ('c1ccc(-c2cn3nc(N4CCOCC4)sc3n2)cc1', -1),
  ('COC(=O)CCC(=O)c1ccc2c(c1)CC1(Cc3ccccc3C1)C2', -1),
  ('Cc1cc2occ(S(=O)(=O)NC(=O)Nc3ccc(Cl)cc3)c(=O)c2c(=O)o1', -1),
  ('N#Cc1nc(Nc2ccc(Cl)cc2)sc1N', -1),
  ('O=C(OC/C=C1C=C(OC(=O)c2ccccc2)/C(=N/N(C(=O)c2ccccc2)c2ccccc2)O\1)c1ccccc1', 1),
  ('COc1ccc(C2c3cc4c(cc3OC(N3CCOCC3)C2C)OCO4)c(OC)c1 (stereo not given)', -1),
  ('CCOC(=O)C1C(c2ccc(Br)cc2)N(Cc2ccccc2)C(c2ccc(Br)cc2)C(C(=O)OC)S1(=O)=O (stereo not given)', -1),
  ('CCCCCCCCCCCCCCCC(=O)NC1CCc2cc(O)c(O)c(O)c2-c2ccc(SC)c(=O)cc21 (stereo not given)', -1),
  ('COc1ccccc1NC(=O)C1=C(C)NC(C)=C(C(=O)Nc2ccccc2OC)C1c1ccc([N+](=O)[O-])cc1', -1),
  ('Cc1nc2cc(F)c(F)cc2[nH]c1=O', -1),
  ('C=C(Br)C(Br)(CCl)CCC(Cl)C(C)C.C=C(Cl)C(Br)(CCl)CCC(Cl)C(C)C (stereo not given)', -1),
  ('COc1nc(NC2OC(COC(C)=O)C(OC(C)=O)C(OC(C)=O)C2OC(C)=O)c(/N=C/C=N/c2c(NC3OC(COC(C)=O)C(OC(C)=O)C(OC(C)=O)C3OC(C)=O)nc(OC)[nH]c2=O)c(=O)[nH]1 (stereo not given)', -1),
  ('Cc1cc(-c2nc3ccc(F)cc3s2)ccc1N', -1),
  ('CSc1nnc(COc2ccc(Cl)cc2)o1', -1),
  ('C=C1CC(COc2ccc3c(C)cc(=O)oc3c2)(c2ccccc2)OC1=O (stereo not given)', -1),
  ('Cc1ccc([N+](=O)[O-])cc1S(=O)(=O)Nc1ccc(C2=NN(C(=O)c3ccccc3)C(c3ccccc3O)C2)cc1 (stereo not given)', -1),
  ('O=C(O)C(CCc1ccccc1)N1C(=O)c2ccccc2C1=O (stereo not given)', -1),
  ('CCn1c(=O)c2c3ccc(O)cc3oc2c2ccc(O)cc21', -1),
  ('COc1ccc(NC(=O)CC/C(CC(=O)c2ccccc2Cl)=N\Nc2nnc(C)n2N)cc1', -1),
  ('Oc1cc(-c2cccc(OCc3ccccc3)c2)nc2cc3c(cc12)OCO3', 1),
  ('CCOC(=O)c1s/c(=N\Nc2nc3ccccc3cc2C2OCCO2)n(Cc2ccccc2)c1C', -1),
  ('CC1COS(=O)N1c1ccccc1 (stereo not given)', -1),
  ('OC(CC(CC(O)(C(F)(F)F)C(F)(F)F)=NN=C(CC(O)(C(F)(F)F)C(F)(F)F)CC(O)(C(F)(F)F)C(F)(F)F)(C(F)(F)F)C(F)(F)F', -1),
  ('Cc1cn(S(=O)(=O)c2ccccc2)c2c(OCc3ccccc3)cc([N+](=O)[O-])cc12', -1),
  ('CC1(C)COC2C(N(Cc3ccccc3)Cc3ccccc3)C(=O)N21 (stereo not given)', -1),
  ('Nc1ncnc2c1ncn2[C@@H]1C[C@H](NO)[C@@H](O)[C@H]1O', -1),
  ('COc1cc2cc(C(=O)N3CC(CCl)c4c3cc(O)c3ccccc43)[nH]c2c(OC)c1OC (stereo not given)', 1),
  ('COc1ccc(NCC(=O)Nn2c(-c3ccccc3)nc3ccccc3c2=O)cc1', -1),
  ('CC(C)c1cc(C(C)C)c(S(=O)(=O)NN)c(C(C)C)c1', -1);

====

The entries below come with measured GI50 values attached.
System: MDA-MB-231
protocol notes: NCI tumour cell line growth inhibition, 48 h
Calls of active or inactive are those of the source. No stated cut-off is given here; in the data, active = GI50 up to about 1.1 µM and inactive = higher.
readout type: GI50

INSERT INTO results (molecule, obs_value) VALUES
  ('COc1ccc2c(-c3ccc(O)cc3)c(Oc3ccccc3)c(=O)oc2c1', '18.8 µM (inactive)'),
  ('CC(=O)Nc1ccc2cc3[nH]c4cc(NC(C)=O)ccc4c3nc2c1', '> 100 µM (inactive)'),
  ('Nc1nc(Nc2ccc(Cl)cc2)sc1C(=O)c1cccs1', '40 µM (inactive)'),
  ('CCc1oc2ccccc2c1C(=O)c1cc(Br)c(O)c(Br)c1', '20.5 µM (inactive)'),
  ('COC(=O)C1=CON2C3CC4CC(C3)CC(C4)C12C (stereo not given)', '> 100 µM (inactive)'),
  ('CCN1C(=O)c2ccccc2C1(O)c1ccc(Cl)cc1 (stereo not given)', '> 100 µM (inactive)'),
  ('COc1ccc2[nH]c3c(C)c4ncccc4c(C)c3c2c1', '> 10 µM (inactive)'),
  ('CCN(CCCl)c1ccc(NC(=O)c2cc(C(=O)NCCN(C)C)cc(C(=O)Nc3ccc(N(CC)CCCl)cc3)c2)cc1', '15.6 µM (inactive)'),
  ('O=CC(O)C(O)C(O)C1CNC(=S)O1 (stereo not given)', '> 100 µM (inactive)'),
  ('COC(=O)CCC1=NCC(C)(C)O1', '> 10 µM (inactive)'),
  ('Oc1ccccc1/C=N/c1nc2cc3sc(/N=C/c4ccccc4O)nc3cc2s1', '> 100 µM (inactive)'),
  ('CN(C)CCCNc1c2c(nc3ccc(Cl)cc13)CCCC2', '13.6 µM (inactive)'),
  ('C[C@]1(O)O[C@@H]2OCC[C@@H]2C2=C1C(=O)c1ccccc1C2=O', '21.2 µM (inactive)'),
  ('S=C(CSc1ccccc1)Nc1cccc2ccccc12', '80.2 µM (inactive)'),
  ('FC(F)(F)C(C1=NC(C(F)(F)F)(C(F)(F)F)N=C(N2CCOCC2)O1)C(F)(F)F', '14.4 µM (inactive)'),
  ('CCn1c2ccc(C(=O)CCCN3CCCCC3)cc2c2cc(C(=O)CCCN3CCCCC3)ccc21', '1.83 µM (inactive)'),
  ('C=C(C)CCC1CCCCC(CN(C)C)C1=O (stereo not given)', '> 100 µM (inactive)'),
  ('N=C(CC(=O)Nc1ccccn1)c1ccccc1', '> 100 µM (inactive)'),
  ('Cc1ccc(C(=O)OC[C@H]2CC[C@@H](n3cc(N(C)C4CCCCC4)c(=O)[nH]c3=O)O2)cc1', '14.9 µM (inactive)'),
  ('CC1C(O)Oc2cc3c(cc2C1c1ccccc1O)OCO3 (stereo not given)', '34.6 µM (inactive)');
